- test-summary: NCI Yeast Anticancer Drug Screen. Data for the cln2 rad14 strain (AID 165);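 note: 0% = growth equal to vehicle treated cultures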
- recorded-conditions: S. cerevisiae cln2 rad14 strain, active compounds read high; at 50.0 µM unless noted
This is part of a sample that, as a whole, favours compounds with a hit. Of some 79,000 tested, about 15% had one in any assay.
quantity-name: growth inhibition (%)
Give bare numbers, in %.

A selection of reference data follows.
O=P1(NC23CC4CC(CC(C4)C2)C3)OC(CCl)=NC1c1ccc(C2N=C(CCl)OP2(=O)NC23CC4CC(CC(C4)C2)C3)cc1 (stereo unspecified) = -12.8
CN(C)c1ccc(N=C(C#N)C(=O)c2ccccc2)cc1 = -21.6
Cc1cn(C2CC(OP(=O)(O)OCC3OC(n4ccc(N)nc4=O)C(O)C3O)C(CO)O2)c(=O)[nH]c1=O (stereo unspecified) = 13.7
O=C(O)C1C2CC=CCC21 (stereo unspecified) = 8.85

Take each entry in turn and give its growth inhibition.
1. CC(C)CC(=O)/C=C\c1ccco1
2. O=C1OC(=O)c2c1nc1ccccc1c2-c1ccccc1
3. NC(=S)c1ccc2ccccc2c1
4. O=[N+]([O-])c1ccc(Sc2ncnc3c2ncn3C2OC(CO)C(O)C2O)c2nonc12 (stereo unspecified)
5. Nc1nc(CCCCc2ccc(NC(=O)CBr)cc2)c(CCCCc2ccccc2)c(=O)[nH]1
6. NC(N)=N/N=C(/CC1OC(=O)c2ccccc21)c1ccc2ccccc2c1 (stereo unspecified)
7. N#CCC(=O)OCCCc1ccccc1

1. 1.3
2. 26
3. 6.15
4. 16.1
5. 24.8
6. 6.5
7. -32.5
